Assay: in vivo
Conditions: mouse, po, oral bioavailability, mice, formulated (mixture of sesame oil, amaranth oil and squalene)
Readout Type: bioavailability

## Task Give the reported bioavailability for this compound. C=C(C)[C@@H]1CCC(C)=C[C@H]1c1c(O)cc(CCCCC)cc1O [CBD, cannabidiol]
## Result ~50%

====

Experiment: in vivo
Conditions: mouse, po, oral bioavailability, mice, administered as an unformulated oil extract
Readout Type: bioavailability

## Task For the compound C=C(C)[C@@H]1CCC(C)=C[C@H]1c1c(O)cc(CCCCC)cc1O , give its reported bioavailability.
## Result 5 to 6%

====

Test: in vivo
Conditions: rat, po, oral bioavailability, rats, formulated (mixture of sesame oil, amaranth oil and squalene)
Readout Type: bioavailability

## Task Report bioavailability, nothing else, for this compound: C=C(C)[C@@H]1CCC(C)=C[C@H]1c1c(O)cc(CCCCC)cc1O
## Result ~60%

====

Assay: in vivo
Details: rat, po, kinetic detection (oral bioavailability), rats, sesame oil alone
Readout Type: bioavailability

## Task Specify bioavailability for C=C(C)[C@@H]1CCC(C)=C[C@H]1c1c(O)cc(CCCCC)cc1O [CBD, cannabidiol] and stop.
## Result 25 to 30%

====

Assay: in vivo
Conditions: mouse, po, kinetic detection (oral bioavailability), mice, sesame oil alone
Readout Type: bioavailability

## Task Answer with the recorded bioavailability for the molecule listed here: C=C(C)[C@@H]1CCC(C)=C[C@H]1c1c(O)cc(CCCCC)cc1O
## Result 25 to 30%
